Molecular target: purified recombinant human Aggrecanase-2 (Agg2-Phe628) (Homo sapiens)
Construct: (Agg2-Phe628) (MW=41,737), which is a truncated form of full-length human aggrecanase-2; made in house; host or cells: CHO cells
Test: Aggrecanase 2 continuous in vitro fluorescence assay
Assay type: biochemical
Conditions: Agg2-Phe628 0.5 μg/ml, substrate 25 μM, 30° C.; read-out: IC50
pIC50: −log10 of the molar value.
measure: pIC50

(I) CCN1C(=O)C2(NN=C(c3ccc(OC)cc3)S2)c2cc(F)c(N3CCN(C)CC3)cc21 (stereo not drawn) [Compound 21]
(II) Cc1ccc2c(c1)C1(NN=C(c3ccccc3)S1)C(=O)N2 (stereo not drawn) [Compound 55]
// compare measured pIC50, left I , right II , return larger Identify your selection by its label.
I

* * *

Target: purified recombinant human Aggrecanase-2 (Agg2-Phe628) (Homo sapiens, UniProt Q9UNA0)
Construct: (Agg2-Phe628) (MW=41,737), which is a truncated form of full-length human aggrecanase-2; made in house; host or cells: CHO cells
Test: Aggrecanase 2 continuous in vitro fluorescence assay
Type: biochemical
Conditions: positive control; read-out: Agg2 IC50
measure: IC50 (nM)
Answer format: numeric, nM implied, no suffix.

Dear colleague, I am looking for the recorded IC50 of the following molecule: CNC(=O)[C@H](Cc1ccccc1)NC(=O)[C@H](CC(C)C)[C@H](CSc1cccs1)C(=O)NO [reference compound]
36

* * *

Target: purified recombinant human Aggrecanase-2 (Agg2-Phe628) (Homo sapiens, UniProt Q9UNA0)
Construct: (Agg2-Phe628) (MW=41,737), which is a truncated form of full-length human aggrecanase-2; made in house; host or cells: CHO cells
Sequence (Q9UNA0 262-628 limits assumed): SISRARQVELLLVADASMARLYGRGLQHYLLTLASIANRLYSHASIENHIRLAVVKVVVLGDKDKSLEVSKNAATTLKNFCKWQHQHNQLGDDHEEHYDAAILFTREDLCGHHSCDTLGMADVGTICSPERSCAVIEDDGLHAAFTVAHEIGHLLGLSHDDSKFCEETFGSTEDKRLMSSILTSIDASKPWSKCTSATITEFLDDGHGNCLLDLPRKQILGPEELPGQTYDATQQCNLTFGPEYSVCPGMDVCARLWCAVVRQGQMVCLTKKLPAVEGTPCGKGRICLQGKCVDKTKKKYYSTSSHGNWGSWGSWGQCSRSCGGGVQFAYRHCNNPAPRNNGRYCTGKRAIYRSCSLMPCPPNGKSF
Assay: Aggrecanase 2 continuous in vitro fluorescence assay
Assay type: biochemical
Conditions: Agg2-Phe628 0.5 μg/ml, substrate 25 μM, 30° C.; read-out: IC50
pIC50: −log10 of the molar value.
measure: pIC50

Before answering, review these 2 worked examples.
{"compound": "CC(C)N1C(=O)C2(NN=C(c3ccccc3)S2)c2ccccc21 (centres unmarked)", "pIC50": 5.52}
{"compound": "C=CCN1C(=O)C2(NN=C(c3ccccc3)S2)c2ccccc21 (centres unmarked)", "pIC50": 5.31}

(1) Cc1cc(C)c2c(c1)C1(NN=C(c3ccccc3)S1)C(=O)N2 (centres unmarked)
(2) COc1ccc(C2=NNC3(S2)C(=O)Nc2ccccc23)cc1 (centres unmarked)
Lab log: flag the item ( 1 or 2 ) with the smaller pIC50 figure. Identify your selection by its label.
2
